- TARGET UNDER TEST: PI3Kbeta (Homo sapiens, UniProt P42338)
- Construct: His (N); host or cells: SF9 insect cells (baculovirus)
- Sequence (P42338 whole entry): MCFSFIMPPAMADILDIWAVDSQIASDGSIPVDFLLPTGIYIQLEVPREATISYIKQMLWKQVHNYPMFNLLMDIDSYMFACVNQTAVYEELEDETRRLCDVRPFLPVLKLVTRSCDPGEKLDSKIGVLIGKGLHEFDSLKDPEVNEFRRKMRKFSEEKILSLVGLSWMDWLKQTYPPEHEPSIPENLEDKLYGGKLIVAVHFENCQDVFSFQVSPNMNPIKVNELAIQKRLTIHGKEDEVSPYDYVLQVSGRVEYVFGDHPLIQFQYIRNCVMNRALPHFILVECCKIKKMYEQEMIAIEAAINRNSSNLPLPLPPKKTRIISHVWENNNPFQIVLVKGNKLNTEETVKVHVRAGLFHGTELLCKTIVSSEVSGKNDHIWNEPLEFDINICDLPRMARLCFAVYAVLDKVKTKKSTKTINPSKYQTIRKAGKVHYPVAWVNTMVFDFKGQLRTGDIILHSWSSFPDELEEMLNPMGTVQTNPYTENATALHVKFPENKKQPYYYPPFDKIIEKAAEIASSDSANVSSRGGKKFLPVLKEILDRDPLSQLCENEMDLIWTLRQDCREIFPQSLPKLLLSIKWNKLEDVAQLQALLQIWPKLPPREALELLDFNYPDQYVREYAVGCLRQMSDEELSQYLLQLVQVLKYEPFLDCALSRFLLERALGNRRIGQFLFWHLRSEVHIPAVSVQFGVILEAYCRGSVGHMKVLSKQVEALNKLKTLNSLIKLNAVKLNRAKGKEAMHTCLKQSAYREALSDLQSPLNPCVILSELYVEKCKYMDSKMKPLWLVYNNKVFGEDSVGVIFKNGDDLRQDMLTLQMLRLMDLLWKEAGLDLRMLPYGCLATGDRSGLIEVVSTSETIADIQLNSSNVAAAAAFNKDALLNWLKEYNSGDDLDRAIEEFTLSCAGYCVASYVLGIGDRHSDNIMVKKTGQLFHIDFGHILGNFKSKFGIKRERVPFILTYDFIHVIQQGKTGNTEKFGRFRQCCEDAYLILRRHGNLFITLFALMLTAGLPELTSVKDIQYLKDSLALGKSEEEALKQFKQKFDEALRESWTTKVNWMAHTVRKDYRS
- Sequence (P27986 whole entry partner): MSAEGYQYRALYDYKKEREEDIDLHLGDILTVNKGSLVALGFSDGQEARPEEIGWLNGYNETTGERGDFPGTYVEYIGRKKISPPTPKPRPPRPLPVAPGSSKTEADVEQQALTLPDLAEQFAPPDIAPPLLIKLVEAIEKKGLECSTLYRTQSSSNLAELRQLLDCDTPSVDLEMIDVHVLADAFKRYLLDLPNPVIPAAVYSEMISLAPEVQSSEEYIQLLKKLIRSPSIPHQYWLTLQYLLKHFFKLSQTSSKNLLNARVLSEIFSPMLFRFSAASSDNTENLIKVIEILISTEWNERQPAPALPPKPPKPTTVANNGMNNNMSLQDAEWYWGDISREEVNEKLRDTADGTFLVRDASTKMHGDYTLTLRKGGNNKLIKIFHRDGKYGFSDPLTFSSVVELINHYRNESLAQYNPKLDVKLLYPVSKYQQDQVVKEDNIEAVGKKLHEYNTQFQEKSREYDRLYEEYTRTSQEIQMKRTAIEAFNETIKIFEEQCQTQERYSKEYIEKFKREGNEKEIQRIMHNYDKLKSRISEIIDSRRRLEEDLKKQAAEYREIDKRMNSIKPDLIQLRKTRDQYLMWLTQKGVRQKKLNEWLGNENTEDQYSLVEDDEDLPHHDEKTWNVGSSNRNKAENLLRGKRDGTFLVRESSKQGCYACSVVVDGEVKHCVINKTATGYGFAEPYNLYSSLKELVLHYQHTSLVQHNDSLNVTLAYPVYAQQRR
- ASSAY NAME: Human PI3K beta enzyme assay (HTRF, as for PI3K alpha)
- Assay type: biochemical
- MEASUREMENT CONDITIONS: at 1.11 μM; read-out: PI3Kbeta % inh
Below, each entry is listed with its recorded inhibition at 1.11 µM.
Entry rule: numbers only, all in %.

Take a look at these entries with their results.
O=C1NCC(c2ccc(Cl)cc2)c2cc(-c3ccncc3)sc21 (stereo not drawn) :: 94.9
O=C1NCCC(c2ccc3ccccc3c2)c2cc(N3CCOCC3)sc21 (stereo not drawn) :: 112
CC1(C)CC(=O)c2sc(-c3ccncc3)cc2C1c1ccc(Cl)cc1 (stereo not drawn) :: 71
N#Cc1c(N2CCOCC2)sc2c1C(c1ccc3ccccc3c1)CCNC2=O (stereo not drawn) :: 117
O=S1(=O)NC=C(c2ccc(Cl)cc2)c2cc(-c3ccncc3)sc21 :: 98.3
CC(=O)Nc1cc(-c2cc3c(s2)C(=O)CCC3c2ccc(Cl)cc2)ccn1 (stereo not drawn) :: 64.6
C[Si](C)(C)CCOCN1CC(O)(c2ccc3ccccc3c2)c2cc(N3CCOCC3)sc2S1(=O)=O (stereo not drawn) :: 101
CN1CC(c2ccc(Cl)cc2)c2cc(-c3ccncc3)sc2C1=O (stereo not drawn) :: 76.8

Would you kindly look at the next entry?
Sample CN(C)CC#Cc1c(N2CCOCC2)sc2c1C(c1ccc(Cl)cc1)CNC2=O (stereo not drawn) ; inhibition at 1.11 µM observed: 116

----------
- TARGET UNDER TEST: PI3Kbeta (Homo sapiens, UniProt P42338)
- Construct: His (N); host or cells: SF9 insect cells (baculovirus)
- ASSAY NAME: Human PI3K beta enzyme assay (HTRF, as for PI3K alpha)
- Assay type: biochemical
- MEASUREMENT CONDITIONS: at 1.11 μM; read-out: PI3Kbeta % inh
Below, each entry is listed with its recorded inhibition at 1.11 µM.

Take a look at these entries with their results.
CC1(C)CNC(=O)c2sc(-c3ccncc3)cc2C1c1ccc(Cl)cc1 (stereo not drawn) [Compound 140] :: 98.3%
O=C1NCCC(c2ccc(Cl)c(Cl)c2)c2nc(N3CCOCC3)sc21 (stereo not drawn) [Compound 173] :: 103%
O=C1CC(c2ccc3ccccc3n2)c2cc(N3CCOCC3)sc21 (stereo not drawn) [Compound 183] :: 90.4%
CC1(C)NC(=O)c2sc(-c3ccncc3)cc2C1c1ccc(Cl)cc1 (stereo not drawn) [Compound 191] :: 79.4%
CC(=O)Nc1cc(-c2cc3c(s2)C(=O)CC3c2ccc(Cl)cc2)ccn1 (stereo not drawn) [Compound 16] :: 54.5%
O=C1NCC(c2ccc(Cl)cc2)c2nc(N3CCOCC3)sc21 (stereo not drawn) [Compound 124] :: 93.5%
COC(=O)c1cc(C2CCNC(=O)c3sc(N4CCOCC4)nc32)ccc1Cl (stereo not drawn) [Compound 174] :: 82.5%
CC1(C)C(=O)c2sc(N3CCOCC3)cc2C1(C)c1ccc(Cl)cc1 (racemic) [Compound 118] :: 63%
O=C1NCC(c2ccc(Cl)cc2)c2c1sc(N1CCOCC1)c2Br (single isomer, unassigned) [Compound 181] :: 69.5%
COc1cc(C2CC(=O)c3sc(N4CCOCC4)cc32)ccc1Cl (stereo not drawn) [Compound 158] :: 108%

Sample O=C1NCCC(c2ccc3ccncc3c2)c2nc(N3CCOCC3)sc21 (stereo not drawn) [Compound 165] ; inhibition at 1.11 µM observed: 109%

Sample Cc1nn2ccccc2c1-c1nc2c(s1)C(=O)CCC2c1ccc(Cl)cc1 (stereo not drawn) [Compound 20] ; inhibition at 1.11 µM observed: 68.2%

Sample CCNC(=O)[C@@H]1NC(=O)c2sc(N3CCOCC3)cc2[C@H]1c1ccc(Cl)cc1 [Compound 197] ; inhibition at 1.11 µM observed: 84.1%

Sample O=C1CCC(c2ccc(Cl)cc2)c2cc(-c3ccncc3)sc21 (racemic) [Compound 13] ; inhibition at 1.11 µM observed: 102%

Sample O=C1CCCC(O)(c2ccc(Cl)cc2)c2cc(-c3ccncc3)sc21 (stereo not drawn) [Compound 15] ; inhibition at 1.11 µM observed: 65%

Sample CNC(=O)c1[nH]c(=O)c2sc(N3CCOCC3)cc2c1-c1ccc(Cl)cc1 [Compound 168] ; inhibition at 1.11 µM observed: 117%

Sample N#Cc1c(N2CCOCC2)sc2c1C(c1ccc3ccccc3c1)CNC2=O (stereo not drawn) [Compound 135] ; inhibition at 1.11 µM observed: 121%

Sample CNC(=O)[C@@H]1NC(=O)c2sc(N3CCOCC3)cc2[C@H]1c1ccc(Cl)c(Cl)c1 [Compound 132] ; inhibition at 1.11 µM observed: 115%

----------
Below, each entry is listed with its recorded PI3Kalpha % inh.
- TARGET UNDER TEST: PI3Kalpha (Homo sapiens)
- Construct: His (N); host or cells: SF9 insect cells (baculovirus)
- Sequence (P42336 whole entry, one chain of several): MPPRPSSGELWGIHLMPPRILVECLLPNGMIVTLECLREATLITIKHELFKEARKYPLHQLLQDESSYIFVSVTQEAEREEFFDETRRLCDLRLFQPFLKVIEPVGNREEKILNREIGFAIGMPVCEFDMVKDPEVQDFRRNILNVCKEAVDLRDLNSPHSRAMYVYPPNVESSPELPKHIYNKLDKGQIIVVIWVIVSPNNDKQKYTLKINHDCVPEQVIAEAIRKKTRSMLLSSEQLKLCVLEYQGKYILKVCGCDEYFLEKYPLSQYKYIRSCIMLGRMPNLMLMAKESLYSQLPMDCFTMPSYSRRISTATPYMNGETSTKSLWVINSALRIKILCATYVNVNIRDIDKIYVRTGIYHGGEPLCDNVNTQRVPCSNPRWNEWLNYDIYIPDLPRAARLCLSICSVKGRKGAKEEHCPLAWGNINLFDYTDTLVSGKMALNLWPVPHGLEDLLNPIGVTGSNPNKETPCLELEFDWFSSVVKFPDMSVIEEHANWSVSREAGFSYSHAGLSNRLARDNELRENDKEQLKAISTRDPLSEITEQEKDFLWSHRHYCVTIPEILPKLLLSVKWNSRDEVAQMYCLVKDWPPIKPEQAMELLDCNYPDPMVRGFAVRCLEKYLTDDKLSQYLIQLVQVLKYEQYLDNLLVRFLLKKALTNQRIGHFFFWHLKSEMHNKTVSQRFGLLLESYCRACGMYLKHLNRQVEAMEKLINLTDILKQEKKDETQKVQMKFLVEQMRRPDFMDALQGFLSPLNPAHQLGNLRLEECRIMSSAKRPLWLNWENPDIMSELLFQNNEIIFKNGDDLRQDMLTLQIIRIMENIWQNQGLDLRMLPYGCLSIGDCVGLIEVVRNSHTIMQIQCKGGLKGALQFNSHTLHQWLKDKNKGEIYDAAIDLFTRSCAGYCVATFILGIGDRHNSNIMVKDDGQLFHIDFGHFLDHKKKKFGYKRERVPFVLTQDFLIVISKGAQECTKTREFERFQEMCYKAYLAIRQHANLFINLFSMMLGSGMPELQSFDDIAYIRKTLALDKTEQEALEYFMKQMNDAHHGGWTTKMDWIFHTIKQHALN
- ASSAY NAME: Human PI3Kα enzyme assay (HTRF)
- Type: biochemical
- MEASUREMENT CONDITIONS: at 1.11 μM
Entry rule: numbers only, all in %.

Take a look at these entries with their results.
O=C1CC(c2ccc(Cl)cc2)c2cc(N3CCOCC3)sc21 (centres unmarked) :: 18.36
O=S1(=O)NCC(O)(c2ccc(Cl)cc2)c2cc(-c3ccncc3)sc21 (single isomer, unassigned) :: 3.200
O=C1NCCC(c2ccc3ccccc3c2)c2nc(N3CCOCC3)sc21 (centres unmarked) [Compound 131] :: 9.87

Sample CCNC(=O)[C@@H]1NC(=O)c2sc(N3CCOCC3)cc2[C@H]1c1ccc(Cl)cc1 [Compound 203] ; PI3Kalpha % inh observed: 40.46

Sample O=C1N[C@@H](CO)CC(c2ccc3ccccc3c2)c2nc(N3CCOCC3)sc21 (some centres unmarked) [Compound 120] ; PI3Kalpha % inh observed: 12.90

Sample NC(=O)[C@@H]1NC(=O)c2sc(N3CCOCC3)cc2[C@H]1c1ccc(Cl)cc1 ; PI3Kalpha % inh observed: 39.72

Sample Cc1cc(C2CNC(=O)c3sc(N4CCOCC4)cc32)ccc1Cl (centres unmarked) ; PI3Kalpha % inh observed: 28.04

Sample CNC(=O)[C@@H]1NC(=O)c2sc(N3CCOCC3)cc2[C@H]1c1ccc(Cl)cc1 [Compound 123] ; PI3Kalpha % inh observed: 32.28

----------
- TARGET UNDER TEST: PI3Kdelta (Homo sapiens)
- Construct: His (N); host or cells: SF9 insect cells (baculovirus)
- Sequence (O00329 whole entry, one chain of several): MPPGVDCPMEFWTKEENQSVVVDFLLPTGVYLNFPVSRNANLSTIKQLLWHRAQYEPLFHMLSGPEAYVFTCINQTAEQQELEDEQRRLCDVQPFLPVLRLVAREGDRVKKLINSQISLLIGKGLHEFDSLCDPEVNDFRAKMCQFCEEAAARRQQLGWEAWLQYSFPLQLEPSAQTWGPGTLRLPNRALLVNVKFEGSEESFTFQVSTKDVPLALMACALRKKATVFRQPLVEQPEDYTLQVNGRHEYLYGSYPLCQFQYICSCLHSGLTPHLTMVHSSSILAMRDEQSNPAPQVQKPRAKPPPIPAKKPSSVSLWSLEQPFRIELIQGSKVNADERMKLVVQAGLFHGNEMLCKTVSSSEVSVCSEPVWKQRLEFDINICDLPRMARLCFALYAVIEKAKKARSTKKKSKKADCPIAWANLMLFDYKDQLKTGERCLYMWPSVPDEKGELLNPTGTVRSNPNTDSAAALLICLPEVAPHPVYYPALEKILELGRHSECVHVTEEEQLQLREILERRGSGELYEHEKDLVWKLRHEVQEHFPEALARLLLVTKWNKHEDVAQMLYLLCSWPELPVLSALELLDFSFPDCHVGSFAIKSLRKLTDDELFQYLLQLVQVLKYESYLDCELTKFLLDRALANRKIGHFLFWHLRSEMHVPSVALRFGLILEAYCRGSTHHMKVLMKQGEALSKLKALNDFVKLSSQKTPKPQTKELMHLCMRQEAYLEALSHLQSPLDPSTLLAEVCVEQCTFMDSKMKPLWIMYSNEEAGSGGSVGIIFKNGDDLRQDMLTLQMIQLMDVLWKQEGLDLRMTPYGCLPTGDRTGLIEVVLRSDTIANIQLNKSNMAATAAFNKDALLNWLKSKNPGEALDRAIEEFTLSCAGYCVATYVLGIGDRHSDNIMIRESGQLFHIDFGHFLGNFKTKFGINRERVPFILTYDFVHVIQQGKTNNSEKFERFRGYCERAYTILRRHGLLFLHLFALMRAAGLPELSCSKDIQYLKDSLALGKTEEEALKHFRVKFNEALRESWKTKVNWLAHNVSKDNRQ
- ASSAY NAME: Human PI3K delta enzyme assay (HTRF, as for PI3K alpha)
- Assay type: biochemical
- MEASUREMENT CONDITIONS: read-out: PI3Kdelta % inh
OBSERVABLE: inhibition at 1.11 µM (%)
Entry rule: numbers only, all in %.

Take a look at these entries with their results.
O=C1CC(c2ccc(Cl)cc2F)c2cc(N3CCOCC3)sc21 (stereo not drawn) :: 81.2
O=C1NCCC(c2ccc(Cl)c(Cl)c2)c2nc(N3CCOCC3)sc21 (stereo not drawn) :: 110
Cc1cc(C2CNC(=O)c3sc(N4CCOCC4)c(C#N)c32)ccc1Cl (stereo not drawn) :: 101

Sample O=C1CCC(O)C(c2ccc(Cl)cc2)c2cc(-c3ccncc3)sc21 (stereo not drawn) ; inhibition at 1.11 µM observed: 34.6

Sample CN1CC(c2ccc(Cl)cc2)c2cc(N3CCOCC3)sc2C1=O (stereo not drawn) ; inhibition at 1.11 µM observed: 62.9

----------
Below, each entry is listed with its recorded inhibition at 1.11 µM.
- TARGET UNDER TEST: PI3Kgamma (Homo sapiens)
- Construct: His (N); host or cells: SF9 insect cells (baculovirus)
- Sequence (P48736 whole entry): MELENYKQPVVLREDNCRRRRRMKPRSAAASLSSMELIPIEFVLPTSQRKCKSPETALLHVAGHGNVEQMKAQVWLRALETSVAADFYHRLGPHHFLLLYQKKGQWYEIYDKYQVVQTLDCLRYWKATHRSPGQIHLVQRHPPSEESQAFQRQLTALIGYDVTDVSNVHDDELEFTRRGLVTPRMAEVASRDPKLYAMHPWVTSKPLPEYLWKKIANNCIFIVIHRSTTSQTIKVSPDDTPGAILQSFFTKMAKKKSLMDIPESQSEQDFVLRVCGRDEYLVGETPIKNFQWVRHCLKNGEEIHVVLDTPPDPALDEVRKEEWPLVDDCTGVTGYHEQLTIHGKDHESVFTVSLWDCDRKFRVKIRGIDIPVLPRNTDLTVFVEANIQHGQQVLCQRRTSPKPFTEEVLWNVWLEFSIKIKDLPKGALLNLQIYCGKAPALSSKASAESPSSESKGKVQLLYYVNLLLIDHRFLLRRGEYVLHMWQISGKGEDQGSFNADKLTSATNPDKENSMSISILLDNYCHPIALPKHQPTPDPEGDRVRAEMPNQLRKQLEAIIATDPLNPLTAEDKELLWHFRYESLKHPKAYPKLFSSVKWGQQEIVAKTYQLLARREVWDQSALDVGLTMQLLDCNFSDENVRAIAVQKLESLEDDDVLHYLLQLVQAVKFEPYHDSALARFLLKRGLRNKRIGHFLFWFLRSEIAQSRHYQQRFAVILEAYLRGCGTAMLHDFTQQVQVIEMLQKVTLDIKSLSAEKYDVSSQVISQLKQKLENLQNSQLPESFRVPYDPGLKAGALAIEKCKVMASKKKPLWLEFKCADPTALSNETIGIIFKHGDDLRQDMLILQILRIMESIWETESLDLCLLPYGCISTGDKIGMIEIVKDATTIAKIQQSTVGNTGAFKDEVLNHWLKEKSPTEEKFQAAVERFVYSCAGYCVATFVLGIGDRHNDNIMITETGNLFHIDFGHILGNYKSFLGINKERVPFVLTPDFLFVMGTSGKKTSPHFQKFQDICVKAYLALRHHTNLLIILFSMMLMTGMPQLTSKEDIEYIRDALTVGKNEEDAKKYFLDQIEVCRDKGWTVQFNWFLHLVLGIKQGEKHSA
- ASSAY NAME: Human PI3K gamma enzyme assay (HTRF, as for PI3K alpha)
- Type: biochemical
- MEASUREMENT CONDITIONS: read-out: PI3Kgamma % inh
Entry rule: numbers only, all in %.

O=C1CC(c2ccc(Cl)cc2)c2cc(-c3ccncc3)sc2N1 (stereo not drawn) :: 3.51
CC1(C)NC(=O)c2sc(-c3ccncc3)cc2C1c1ccc(Cl)cc1 (stereo not drawn) :: 6.39
CC(=O)Nc1cc(-c2cc3c(s2)C(=O)NCCC3c2ccc(Cl)cc2)ccn1 (stereo not drawn) :: 63.4
O=C1CCCC(O)(c2ccc(Cl)cc2)c2cc(-c3ccncc3)sc21 (stereo not drawn) :: 4
N#Cc1c(N2CCOCC2)sc2c1C(c1c(F)cc(Cl)cc1F)CCNC2=O (stereo not drawn) :: 42.6
O=C1NCC(c2ccc(Cl)c(Cl)c2)c2cc(N3CCOCC3)sc21 (stereo not drawn) :: 60.1

Sample Cc1nn2ccccc2c1-c1nc2c(s1)C(=O)CCC2c1ccc(Cl)cc1 (stereo not drawn) ; inhibition at 1.11 µM observed: 6.6

Sample O=C1CCCC(c2ccc(Cl)cc2)c2cc(-c3ccncc3)sc21 (stereo not drawn) ; inhibition at 1.11 µM observed: 8.1

Sample O=C1CCC(c2ccc(Cl)cc2)c2cc(-c3ccncc3)sc21 (racemic) [Compound 13] ; inhibition at 1.11 µM observed: 10.8
